Molecular target: Serine/threonine-protein kinase PknB (Mycobacterium tuberculosis, UniProt P9WI81)
Sequence (P9WI81 whole entry): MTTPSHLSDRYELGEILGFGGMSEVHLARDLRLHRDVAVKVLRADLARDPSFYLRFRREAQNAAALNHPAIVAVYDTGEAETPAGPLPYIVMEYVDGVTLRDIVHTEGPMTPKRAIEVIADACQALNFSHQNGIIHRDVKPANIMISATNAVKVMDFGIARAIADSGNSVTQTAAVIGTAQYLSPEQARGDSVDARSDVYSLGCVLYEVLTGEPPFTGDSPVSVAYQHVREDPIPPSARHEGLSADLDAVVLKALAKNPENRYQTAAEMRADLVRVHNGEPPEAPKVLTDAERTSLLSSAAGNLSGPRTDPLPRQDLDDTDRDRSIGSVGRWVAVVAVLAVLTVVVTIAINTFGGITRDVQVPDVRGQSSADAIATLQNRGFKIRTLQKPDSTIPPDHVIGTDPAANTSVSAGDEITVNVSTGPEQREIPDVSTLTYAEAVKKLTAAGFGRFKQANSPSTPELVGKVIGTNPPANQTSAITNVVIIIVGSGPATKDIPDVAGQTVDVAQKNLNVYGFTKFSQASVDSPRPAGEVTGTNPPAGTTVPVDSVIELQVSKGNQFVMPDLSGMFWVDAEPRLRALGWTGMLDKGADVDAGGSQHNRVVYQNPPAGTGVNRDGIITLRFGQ
Assay: Binding affinity to Mycobacterium tuberculosis recombinant N-terminal His-tagged PknB (1 to 331 residues) expressed in Escherichia coli DH5alpha cells by microscale thermophoresis analysis
Listed here: items and their measured Kd.
Measured Property: Kd (nM)

1) CN1CCN(c2ccc(Nc3nccc(-c4ccnc(Cl)c4)n3)cc2C(F)(F)F)CC1    48
2) CN1CCN(c2ccc(Nc3nccc(-c4ccc([N+](=O)[O-])cc4)n3)cc2C(F)(F)F)CC1    410
3) CN1CCN(c2ccc(Nc3nccc(-c4ccc(Cl)cc4)n3)cc2C(F)(F)F)CC1    2200
4) CN1CCN(c2ccc(Nc3nccc(-c4cccnc4)n3)cc2C(F)(F)F)CC1    61
5) CN1CCN(c2ccc(Nc3nccc(-c4ccc5ccccc5c4)n3)cc2C(F)(F)F)CC1    430
6) COc1cccc(-c2ccnc(Nc3ccc(N4CCN(C)CC4)c(C(F)(F)F)c3)n2)c1    660
7) CN1CCN(c2ccc(Nc3nccc(-c4ccc(C#N)cc4)n3)cc2C(F)(F)F)CC1    700

###

molecular target: Serine/threonine-protein kinase PknB (Mycobacterium tuberculosis); test: Binding affinity to Mycobacterium tuberculosis partial length PknB (M1 to G279 residues) expressed in mammalian expression system by KdELECT kinase assay
pKd: −log10 of the molar value.
Measured Property: pKd

1) CN1CCN(c2ccc(Nc3nccc(-c4cccc([N+](=O)[O-])c4)n3)cc2C(F)(F)F)CC1    7.72
2) CN1CCN(c2ccc(Nc3nccc(-c4ccccc4)n3)cc2C(F)(F)F)CC1    6.37
3) CN1CCN(c2ccc(Nc3nccc(-c4ccnc(Cl)c4)n3)cc2C(F)(F)F)CC1    7.33
4) CN1CCN(c2ccc(Nc3nccc(-c4cccc(Cl)c4)n3)cc2C(F)(F)F)CC1    6.74

###

Listed here are molecules together with their documented survival at 120 h, 5 µM.
assay: Toxicity against Zebrafish embryo assessed as embryo survival at 5 uM incubated for 5 days and measured daily; set-up: species or system Danio rerio; settings: zebrafish embryos, time 5 day
Measured Property: survival at 120 h, 5 µM (%)

1. CN1CCN(c2ccc(Nc3nccc(-c4ccnc(Cl)c4)n3)cc2C(F)(F)F)CC1    89
2. CN1CCN(c2ccc(Nc3nccc(-c4cccnc4)n3)cc2C(F)(F)F)CC1    56
3. Cc1ccc(-c2ccnc(Nc3ccc(N4CCN(C)CC4)c(C(F)(F)F)c3)n2)cc1    0
4. CN1CCN(c2ccc(Nc3nccc(-c4cccc(Cl)c4)n3)cc2C(F)(F)F)CC1    57
5. CN1CCN(c2ccc(Nc3nccc(-c4ccccc4)n3)cc2C(F)(F)F)CC1    96
6. CN1CCN(c2ccc(Nc3nccc(-c4ccc5ccccc5c4)n3)cc2C(F)(F)F)CC1    100
7. CN1CCN(c2ccc(Nc3nccc(-c4cccc([N+](=O)[O-])c4)n3)cc2C(F)(F)F)CC1    0

###

// endpoint pKd / system Serine/threonine-protein kinase pim-1 (Homo sapiens)
pKd: −log10 of the molar value.
Measured Property: pKd

1. CN1CCN(c2ccc(Nc3nccc(-c4cccc([N+](=O)[O-])c4)n3)cc2C(F)(F)F)CC1    5.66
2. CN1CCN(c2ccc(Nc3nccc(-c4ccnc(Cl)c4)n3)cc2C(F)(F)F)CC1    5.66
3. CN1CCN(c2ccc(Nc3nccc(-c4ccccc4)n3)cc2C(F)(F)F)CC1    5.28

###

Serine/threonine-protein kinase mTOR (Homo sapiens): recorded Kd for assorted compounds
Measured Property: Kd (µM)

1) CN1CCN(c2ccc(Nc3nccc(-c4ccnc(Cl)c4)n3)cc2C(F)(F)F)CC1    0.69
2) CN1CCN(c2ccc(Nc3nccc(-c4cccc([N+](=O)[O-])c4)n3)cc2C(F)(F)F)CC1    5.8

###

target: CDK4/Cyclin D3 (Homo sapiens); assay: Binding affinity to human full length CDK4 (M1 to E303 residues) expressed in mammalian expression system/CyclinD3 by KdELECT kinase assay; format: toxicity
Measured Property: Kd (nM)

1. CN1CCN(c2ccc(Nc3nccc(-c4ccnc(Cl)c4)n3)cc2C(F)(F)F)CC1    440
2. CN1CCN(c2ccc(Nc3nccc(-c4ccccc4)n3)cc2C(F)(F)F)CC1    1200
3. CN1CCN(c2ccc(Nc3nccc(-c4cccc(Cl)c4)n3)cc2C(F)(F)F)CC1    3000
4. CN1CCN(c2ccc(Nc3nccc(-c4cccc([N+](=O)[O-])c4)n3)cc2C(F)(F)F)CC1    910

###

Entries annotated with measured Kd
molecular target: Glycogen synthase kinase-3 beta (Homo sapiens); test: Binding affinity to human full length GSK-3 beta (M1 to T433 residues) expressed in mammalian expression system by KdELECT kinase assay; assay type: toxicity
Measured Property: Kd (µM)

1. CN1CCN(c2ccc(Nc3nccc(-c4ccnc(Cl)c4)n3)cc2C(F)(F)F)CC1    2.6
2. CN1CCN(c2ccc(Nc3nccc(-c4ccccc4)n3)cc2C(F)(F)F)CC1    2.8
3. CN1CCN(c2ccc(Nc3nccc(-c4cccc([N+](=O)[O-])c4)n3)cc2C(F)(F)F)CC1    3.8
4. CN1CCN(c2ccc(Nc3nccc(-c4cccc(Cl)c4)n3)cc2C(F)(F)F)CC1    9.3

###

target: Serine/threonine-protein kinase PknB (Mycobacterium tuberculosis, UniProt P9WI81); experiment: Inhibition of Mycobacterium tuberculosis recombinant PknB (1 to 331 residues) expressed in Escherichia coli BL21-Rosetta cells using GarA and ATP as substrate preincubated with enzyme for 10 mins followed by substrate addition and measured after 1 hr by ATP-competitive biochemical assay
Grouping by measured IC50 is done with the following cut points: low bracket = under 2 µM, middle bracket = from 2 µM up to 6 µM, high bracket = 6 µM and over

1) CN1CCN(c2ccc(Nc3nccc(-c4ccc(F)cc4)n3)cc2C(F)(F)F)CC1    high bracket
2) CN1CCN(c2ccc(Nc3nccc(-c4ccc5ccccc5c4)n3)cc2C(F)(F)F)CC1    middle bracket
3) CN1CCN(c2ccc(Nc3nccc(-c4ccc(Cl)cc4)n3)cc2C(F)(F)F)CC1    high bracket
4) Cc1ccc(-c2ccnc(Nc3ccc(N4CCN(C)CC4)c(C(F)(F)F)c3)n2)cc1    low bracket
5) COc1cccc(-c2ccnc(Nc3ccc(N4CCN(C)CC4)c(C(F)(F)F)c3)n2)c1    high bracket
6) CN1CCN(c2ccc(Nc3nccc(-c4ccc(C#N)cc4)n3)cc2C(F)(F)F)CC1    middle bracket
7) CN1CCN(c2ccc(Nc3nccc(-c4ccnc(NCc5ccccc5)c4)n3)cc2C(F)(F)F)CC1    high bracket
8) CN1CCN(c2ccc(Nc3nccc(-c4ccc([N+](=O)[O-])cc4)n3)cc2C(F)(F)F)CC1    middle bracket
9) CNc1cc(-c2ccnc(Nc3ccc(N4CCN(C)CC4)c(C(F)(F)F)c3)n2)ccn1    high bracket
10) CN1CCN(c2ccc(Nc3nccc(-c4cccc(C#N)c4)n3)cc2C(F)(F)F)CC1    middle bracket
11) CN1CCN(c2ccc(Nc3nccc(-c4ccnc(Cl)c4)n3)cc2C(F)(F)F)CC1    low bracket
12) CN1CCN(c2ccc(Nc3nccc(-c4cccc(Cl)c4)n3)cc2C(F)(F)F)CC1    middle bracket
13) CN1CCN(c2ccc(Nc3nccc(-c4ccccc4)n3)cc2C(F)(F)F)CC1    middle bracket
14) CN1CCN(c2ccc(Nc3nccc(-c4cccnc4)n3)cc2C(F)(F)F)CC1    low bracket
15) CN1CCN(c2ccc(Nc3nccc(-c4cccc([N+](=O)[O-])c4)n3)cc2C(F)(F)F)CC1    low bracket

###

target: Serine/threonine-protein kinase PknB (Mycobacterium tuberculosis); experiment: Inhibition of Mycobacterium tuberculosis recombinant PknB (1 to 331 residues) expressed in Escherichia coli BL21-Rosetta cells using GarA and ATP as substrate preincubated with enzyme for 10 mins followed by substrate addition and measured after 1 hr by ATP-competitive biochemical assay
Please use 1 (yes) for Ki under 1000 nM and 0 (no) for everything else, ties included.

1. CNc1cc(-c2ccnc(Nc3ccc(N4CCN(C)CC4)c(C(F)(F)F)c3)n2)ccn1    0 (no)
2. CN1CCN(c2ccc(Nc3nccc(-c4ccc(C#N)cc4)n3)cc2C(F)(F)F)CC1    0 (no)
3. CN1CCN(c2ccc(Nc3nccc(-c4ccc(Cl)cc4)n3)cc2C(F)(F)F)CC1    0 (no)
4. CN1CCN(c2ccc(Nc3nccc(-c4cccc([N+](=O)[O-])c4)n3)cc2C(F)(F)F)CC1    1 (yes)
5. CN1CCN(c2ccc(Nc3nccc(-c4ccccc4)n3)cc2C(F)(F)F)CC1    0 (no)

This collection of values is drawn from ChEMBL document CHEMBL5226357.
